run description: Biodistribution in B16/F1 melanoma-bearing C57 mice
Format: in vivo
settings: female, C57, mouse, urine, iv, 0.037 MBq, total radioactivity; 2 h post-injection; read-out: Urine, percent injected dose
endpoint name: dose excreted at 2 h (%)

molecule: CCCC[C@H](NC(=O)CN1CCN(CC(=O)O)CCN(CC(=O)O)CCN(CC(=O)O)CC1)C(=O)N[C@H]1CC(=O)NCCCC[C@@H](C(N)=O)NC(=O)[C@H](Cc2c[nH]c3ccccc23)NC(=O)[C@H](CCCNC(=N)N)NC(=O)[C@@H](Cc2ccccc2)NC(=O)[C@H](Cc2c[nH]cn2)NC1=O [^111In-DOTA-Nle-CycMSHhex, metal not drawn]
endpoint name: dose excreted at 2 h
readout number: 82.2
